System: LoVo
measurement notes: Cytotoxicity against human doxorubicin resistant LoVo cells after 48 hrs by SRB assay
Assay type: functional
Please assign no whenever GI50 is at or above 300 nM, and yes whenever it is below.

Identify whether the compound C/C=C1\NC(=O)[C@H](Cc2ccccc2)NC(=O)[C@@H](C(C)C)NC(=O)[C@@H]([C@H](C)CC)NC(=O)[C@H](NC(=O)[C@H](NC(=O)[C@H](CCCN)NC(=O)[C@H]2CCCN2C(=O)[C@H](NC(=O)[C@@H](NC(=O)[C@@H](NC(=O)CNC(=O)CCCC(C)C)[C@@H](C)O)C(C)C)C(C)C)[C@H](C)CC)[C@H](C)OC(=O)[C@H](C(C)C)NC1=O records GI50 below 300 nM.
no

Hello, is GI50 of the following compound strictly smaller than 300 nM? C/C=C1\NC(=O)[C@H](Cc2ccccc2)NC(=O)[C@@H](C(C)C)NC(=O)[C@@H](C(C)C)NC(=O)[C@H](NC(=O)[C@H](NC(=O)[C@H](CCCN)NC(=O)[C@H]2CCCN2C(=O)[C@H](NC(=O)[C@@H](NC(=O)[C@@H](NC(=O)[C@H](NC(=O)CCCC(C)C)C(C)C)[C@@H](C)O)C(C)C)C(C)C)C(C)C)[C@H](C)OC(=O)[C@H](C(C)C)NC1=O
no

---
For C/C=C1\NC(=O)[C@H](Cc2ccc(-c3ccccc3)cc2)NC(=O)[C@@H](C(C)C)NC(=O)[C@@H]([C@H](C)CC)NC(=O)[C@H](NC(=O)[C@H](NC(=O)[C@H](CCCN)NC(=O)[C@H]2CCCN2C(=O)[C@H](NC(=O)[C@@H](NC(=O)[C@@H](NC(=O)[C@H](NC(=O)CCCC(C)C)C(C)C)[C@@H](C)O)C(C)C)C(C)C)[C@H](C)CC)[C@H](C)OC(=O)[C@H](C(C)C)NC1=O , is the recorded GI50 below the cut-off of 300 nM?
yes

Given C/C=C1\NC(=O)[C@H](Cc2ccccc2)NC(=O)[C@@H](C(C)C)NC(=O)[C@@H]([C@H](C)CC)NC(=O)[C@H](NC(=O)[C@H](NC(=O)[C@H](CCCN)NC(=O)[C@H]2CCCN2C(=O)[C@H](NC(=O)[C@@H](NC(=O)[C@@H](NC(=O)[C@@H](CCC(=O)O)NC(=O)CCCC(C)C)[C@@H](C)O)C(C)C)C(C)C)[C@H](C)CC)[C@H](C)OC(=O)[C@H](C(C)C)NC1=O , is recorded GI50 strictly lower than 300 nM?
no

Check if GI50 falls below 300 nM for C/C=C1\NC(=O)[C@H](Cc2ccccc2)NC(=O)[C@@H](C(C)C)NC(=O)[C@@H]([C@H](C)CC)NC(=O)[C@H](NC(=O)[C@H](NC(=O)[C@H](CCCN)NC(=O)[C@H]2CCCN2C(=O)[C@H](NC(=O)[C@@H](NC(=O)[C@@H](NC(=O)[C@@H](NC(=O)CCCC(C)C)C(C)C)[C@@H](C)O)C(C)C)C(C)C)[C@H](C)CC)[C@H](C)OC(=O)[C@H](C(C)C)NC1=O .
no

Find out if reported GI50 for C/C=C1\NC(=O)[C@H](Cc2ccc3ccccc3c2)NC(=O)[C@@H](C(C)C)NC(=O)[C@@H]([C@H](C)CC)NC(=O)[C@H](NC(=O)[C@H](NC(=O)[C@H](CCCN)NC(=O)[C@H]2CCCN2C(=O)[C@H](NC(=O)[C@@H](NC(=O)[C@@H](NC(=O)[C@H](NC(=O)CCCC(C)C)C(C)C)[C@@H](C)O)C(C)C)C(C)C)[C@H](C)CC)[C@H](C)OC(=O)[C@H](C(C)C)NC1=O is less than 300 nM
yes

GI50 under 300 nM? Item: C/C=C1\NC(=O)[C@H](Cc2ccccc2)NC(=O)[C@@H](C(C)C)NC(=O)[C@@H]([C@H](C)CC)NC(=O)[C@H](NC(=O)[C@H](NC(=O)[C@H](CCCN)NC(=O)[C@H]2CCCN2C(=O)[C@H](NC(=O)[C@@H](NC(=O)[C@@H](NC(=O)[C@H](NC(=O)CC(C)C)C(C)C)[C@@H](C)O)C(C)C)C(C)C)[C@H](C)CC)[C@H](C)OC(=O)[C@H](C(C)C)NC1=O
no

Problem: For the compound C/C=C1\NC(=O)[C@H](Cc2ccccc2)NC(=O)[C@@H](C(C)C)NC(=O)[C@@H]([C@H](C)CC)NC(=O)[C@H](NC(=O)[C@H](NC(=O)[C@H](CCCN)NC(=O)[C@H]2CCCN2C(=O)[C@H](NC(=O)[C@@H](NC(=O)[C@@H](NC(=O)[C@@H](CC(C)C)NC(=O)CCCC(C)C)[C@@H](C)O)C(C)C)C(C)C)[C@H](C)CC)[C@H](C)OC(=O)[C@H](C(C)C)NC1=O , is GI50 under 300 nM?
no

A record lists C/C=C1\NC(=O)[C@H](Cc2ccccc2)NC(=O)[C@@H](C(C)C)NC(=O)[C@@H]([C@H](C)CC)NC(=O)[C@H](NC(=O)[C@H](NC(=O)[C@H](CCCN)NC(=O)[C@H]2CCCN2C(=O)[C@H](NC(=O)[C@@H](NC(=O)[C@H](CC(C)C)NC(=O)[C@H](NC(=O)CCCC(C)C)C(C)C)C(C)C)C(C)C)[C@H](C)CC)[C@H](C)OC(=O)[C@H](C(C)C)NC1=O . Is its GI50 below 300 nM?
yes

// provenance: ChEMBL document CHEMBL1156597
